# System: MDA-MB-231 breast
# method.notes: NCI tumour cell line growth inhibition, 48 h; in the data active means GI50 below about 0.43 µM; inactive means the rest
Outcome codes: active, inactive

[[record]]
molecule = "CC(C)[C@H]1COC(=O)N1[C@@H]1C(=O)N([C@@H](CCC(=O)N2CCN(C3CCCC3)CC2)C(=O)N[C@@H]2CCCc3ccccc32)[C@@H]1/C=C/c1cccc(Br)c1"
target_desc = "MDA-MB-231 breast"
cat = "inactive"

[[record]]
molecule = "C[C@@H]1CCC2[C@@H](C)[C@@H](OCC(CO[C@H]3OC4O[C@@]5(C)CC[C@H]6[C@H](C)CCC([C@H]3C)[C@@]46OO5)OC(=O)CCC(=O)O)OC3O[C@@]4(C)CC[C@@H]1[C@]32OO4 (stereo not given in full)"
target_desc = "MDA-MB-231 breast"
cat = "active"

[[record]]
molecule = "Nc1ncnc2c1nnn2C1OC(CO)C(O)C1O (stereo not given)"
target_desc = "MDA-MB-231 breast"
cat = "active"

[[record]]
molecule = "C=C1C(=O)O[C@H]2[C@H]1CC/C(COC(=O)c1c[nH]c3ccccc13)=C\\CC[C@@]1(C)O[C@@H]21"
target_desc = "MDA-MB-231 breast"
cat = "active"

[[record]]
molecule = "Cc1cc(/C=C/c2ccc3cc(N(C)C)ccc3[n+]2C)c(C)n1-c1ccccc1"
target_desc = "MDA-MB-231 breast"
cat = "active"

